The following compounds are shown together with reported pIC50 values.
Molecular target: Human immunodeficiency virus type 1 reverse transcriptase (Human immunodeficiency virus 1, UniProt Q72547)
Here pIC50 is given on a logarithmic scale as minus log10 of the concentration in mol/L.

Here is how some compounds turned out for pIC50.
- compound: "COCCNC(=O)c1cnc(Nc2ccc(C#N)cc2)cc1Oc1c(C)cc(C)cc1C"
  pIC50: 6.28
- compound: "C=CCNC(=O)c1cnc(Nc2ccc(C#N)cc2)cc1Oc1c(C)cc(C#N)cc1C"
  pIC50: 5.55
- compound: "C=CCNC(=O)c1cnc(Nc2ccc(C#N)cc2)cc1Oc1c(C)cc(C)cc1C"
  pIC50: 6.77
- compound: "Cc1cc(C#N)cc(C)c1Oc1cc(Nc2ccc(C#N)cc2)ncc1C(=O)NC1CC1"
  pIC50: 5.47
- compound: "Cc1cc(C)c(Oc2cc(Nc3ccc(C#N)cc3)ncc2C(N)=O)c(C)c1"
  pIC50: 7.70
- compound: "COC(CNC(=O)c1cnc(Nc2ccc(C#N)cc2)cc1Oc1c(C)cc(C)cc1C)OC"
  pIC50: 5.72
- compound: "Cc1cc(C)c(Oc2cc(Nc3ccc(C#N)cc3)ncc2C(=O)NCCC#N)c(C)c1"
  pIC50: 6.72
- compound: "Cc1cc(C)c(Oc2cc(Nc3ccc(C#N)cc3)ncc2C(=O)NCC2CC2)c(C)c1"
  pIC50: 6.17
- compound: "COC(CNC(=O)c1cnc(Nc2ccc(C#N)cc2)cc1Oc1c(C)cc(C#N)cc1C)OC"
  pIC50: 4.94
- compound: "Cc1cc(C#N)cc(C)c1Oc1cc(Nc2ccc(C#N)cc2)ncc1C(=O)NCCN(C)C"
  pIC50: 4.59

Now look at this one.
q: Query: pIC50; subject: Cc1cc(C#N)cc(C)c1Oc1cc(Nc2ccc(C#N)cc2)ncc1C(=O)NCC1CCCO1 (configuration not stated)
a: 4.96

----------
Reported CC50 at 120 h is given for each of the following compounds.
Test: Cytotoxicity against mock-infected human MT4 cells after 5 days by MTT assay
Type: cell-based
Answer in µM, number only, no unit symbol.

Check out these entries, answers already filled in.
- query smiles: "COCCNC(=O)c1cnc(Nc2ccc(C#N)cc2)cc1Oc1c(C)cc(C#N)cc1C"
  readout units: "µM"
  assay result: 61
- query smiles: "C=CCNC(=O)c1cnc(Nc2ccc(C#N)cc2)cc1Oc1c(C)cc(C)cc1C"
  readout units: "µM"
  assay result: 21.3
- query smiles: "COC(CNC(=O)c1cnc(Nc2ccc(C#N)cc2)cc1Oc1c(C)cc(C)cc1C)OC"
  readout units: "µM"
  assay result: 23.2
- query smiles: "CCCNC(=O)c1cnc(Nc2ccc(C#N)cc2)cc1Oc1c(C)cc(C#N)cc1C"
  readout units: "µM"
  assay result: 170
- query smiles: "CCCNC(=O)c1cnc(Nc2ccc(C#N)cc2)cc1Oc1c(C)cc(C)cc1C"
  readout units: "µM"
  assay result: 18.9

q: What value of measured CC50 at 120 h is listed for `Cc1cc(C)c(Oc2cc(Nc3ccc(C#N)cc3)ncc2C(=O)NCCN(C)C)c(C)c1` ?
a: 4.67

q: Consider the compound `C#CCNC(=O)c1cnc(Nc2ccc(C#N)cc2)cc1Oc1c(C)cc(C)cc1C` and give its measured CC50 at 120 h.
a: 73

q: What CC50 at 120 h value was documented for this compound, `COCCNC(=O)c1cnc(Nc2ccc(C#N)cc2)cc1Oc1c(C)cc(C)cc1C` ?
a: 24

Reference source for all entries: ChEMBL document CHEMBL3351775
